Source of measurements: patent EP4772193A1

SYSTEM: T1, recombinant human soluble gpNMB (recombinant human gpNMB-FLAG-His) (human, UniProt Q14956 23-498)
T1 sequence: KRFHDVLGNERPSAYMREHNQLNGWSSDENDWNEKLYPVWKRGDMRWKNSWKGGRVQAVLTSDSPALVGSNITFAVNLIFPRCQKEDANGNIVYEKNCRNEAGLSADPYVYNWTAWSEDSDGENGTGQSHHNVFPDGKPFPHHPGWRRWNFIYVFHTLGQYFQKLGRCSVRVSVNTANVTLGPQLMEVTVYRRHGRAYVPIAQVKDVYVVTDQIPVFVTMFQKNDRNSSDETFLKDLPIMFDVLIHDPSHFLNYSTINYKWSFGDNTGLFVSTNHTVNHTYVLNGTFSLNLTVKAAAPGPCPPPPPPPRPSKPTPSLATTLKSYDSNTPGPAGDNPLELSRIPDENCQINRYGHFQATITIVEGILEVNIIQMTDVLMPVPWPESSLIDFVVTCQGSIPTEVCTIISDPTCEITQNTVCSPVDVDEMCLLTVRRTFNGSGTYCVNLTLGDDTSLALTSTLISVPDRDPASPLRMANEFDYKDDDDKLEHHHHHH
ASSAY_OVERVIEW: antigen ELISA
READOUT_LABEL: pEC50
Give bare numbers, as −log10 of the molar value.

Some solved cases for reference:
hGPN06-1_H1L1 VL L53A (antibody, V domains shown) VH: QVQLVQSGAEVKKPGASVKVSCKASGYTFTDNWMGWVKQRPGQGLEWIGAIDPSDSFTNYNQNFKGRVTMTVDTSISTAYMELSRLRSDDSAVYFCTRSGYYGSPKLGGDYWGQGTLVTVSS VL: EIVLTQSPSSLSASVGDRVTITCSASSSISYMHWYQQKSGTAPKLLIYSTSNAASGVPSRFSGSGSGTDFTFTISSLQPEDAATYYCHQWNSYPCTFGGGTKLEIK :: 9.25
hGPN06-1_H1L1 VL S26A (antibody, V domains shown) VH: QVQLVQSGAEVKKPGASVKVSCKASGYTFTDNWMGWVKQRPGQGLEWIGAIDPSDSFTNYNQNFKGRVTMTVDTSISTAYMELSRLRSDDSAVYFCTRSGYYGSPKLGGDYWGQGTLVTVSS VL: EIVLTQSPSSLSASVGDRVTITCSAASSISYMHWYQQKSGTAPKLLIYSTSNLASGVPSRFSGSGSGTDFTFTISSLQPEDAATYYCHQWNSYPCTFGGGTKLEIK :: 8.96

Now let's try a different one.
Challenge: Please give measured pEC50 of the following entry: hGPN06-1_H1L1 VL S55A (antibody, V domains shown) VH: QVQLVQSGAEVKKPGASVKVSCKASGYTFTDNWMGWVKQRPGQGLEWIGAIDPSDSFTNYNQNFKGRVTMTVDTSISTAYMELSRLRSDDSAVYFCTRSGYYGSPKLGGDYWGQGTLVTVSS VL: EIVLTQSPSSLSASVGDRVTITCSASSSISYMHWYQQKSGTAPKLLIYSTSNLAAGVPSRFSGSGSGTDFTFTISSLQPEDAATYYCHQWNSYPCTFGGGTKLEIK
Response given: 9.22
